Test system: MS2 coat protein
assay.summary: apparent KD of MS2 coat protein; designed switch direction (-1 OFF switch, 1 ON switch): 1; higher = weaker reporter binding
condition.info: Eterna round: R95; input ligand: FMN 200 uM
measure: apparent KD of MS2 coat protein

**Q:** Identify the measured apparent KD of MS2 coat protein of GGAGCCGGCACCGAGGAUAUUCAUAUUAAAACAUGAGGAUCACCCAUGUAGGCCAGAAGGCUUUGGGAGAAGGCGGAUCGGCUCG [Xeonanis - 3] (puzzle: Same State 2) for MS2 coat protein.
**A:** 25.3 nM

**Q:** Under MS2 coat protein: apparent KD of MS2 coat protein value of UGAAAACAUGAGGAUCACCCAUGUAUUAUUAUGGGAGGAUAUGGGAAUUAAUUAAUUAAACCAGAAGGCCUAAAGU [Mat - Same State 1 - D89] (puzzle: Same State 1) ?
**A:** 24.7 nM

**Q:** Lab note: need apparent KD of MS2 coat protein with MS2 coat protein for entry CGUCCGGCCUGUGCUGGCCGGAAGCAUGUACAUGAGGAUCACCCAUGUUCUUGUGCAGGCUUUUUGCUCGUCUUGUG [salish99_mir208a_010] (puzzle: Sensor for hsa-mir-208a) , please look it up.
**A:** 24.9 nM

**Q:** Query the reported apparent KD of MS2 coat protein for MS2 coat protein; item: GUGUGUUGCGGGCAGGAUAUGUACUUGAGUACAUGAGGAUCACCCAUGUGCGGGUGUUUCACCCGACAGAAGGGCCUAUCGCGAC [JL-ss2-3.25 ViennaUCT mod] (puzzle: Same State 2)
**A:** 145 nM

**Q:** What is its apparent KD of MS2 coat protein for MS2 coat protein? Entry: AUAAAACAUGAGGAUCACCCAUGUCAACAAAGUCGAGGAUAUGUGCAAAUAAAAUAAGAACCAGAAGGCGAAUAAU [salish99_ss1_r3_049] (puzzle: Same State 1)
**A:** 16.2 nM
